Value source: PubChem BioAssay (NCI)

Test system: MOLT-4 leukemia
Assay: NCI-60 one-dose screen, 48 h
Details: 10 µM
Compounds without any hit were thinned out: in the full panel of roughly 83,000, 20% have a hit. Activity calls are given as the source filed them. How the source made its calls: active means growth percent below 10; inactive means the rest.
Classes used: yes (1) (active), no (0) (inactive)

{"columns": ["Compound", "Cat"],
 "data": [
  ["O=C1CCC(N2Cc3cc(CC(=O)Nc4ccc(N5CCCCC5)cc4)ccc3C2=O)C(=O)N1 (centres undefined)", "yes (1)"],
  ["Nc1n[nH]c2cccc(C#Cc3cccc(NC(=O)Nc4cc(C(F)(F)F)cc(C(F)(F)F)c4)c3)c12", "yes (1)"],
  ["N#Cc1c(-c2ccc(F)cc2)nc(SCc2ccc(F)cc2)nc1N1CCOCC1", "no (0)"],
  ["C=CC(=O)Nc1ccc(C(=O)/C=C/c2ccc(N(C)CCF)cc2)c(O)c1", "yes (1)"],
  ["Cc1ccc(-c2nc(Nc3ccccc3C(=O)O)c3ccccc3n2)cc1", "no (0)"],
  ["O=C(CNc1nc(-c2ccccc2)cs1)Nc1ccc(Cl)cc1", "yes (1)"],
  ["COc1ccc(-c2ccc(/C=N/NC(=O)c3[nH]c4ccc(Br)cc4c3-c3ccccc3)o2)cc1", "no (0)"],
  ["COc1ccc2cc([C@H](C)C(=O)NCc3ccccc3)ccc2c1", "no (0)"],
  ["[2H]C([2H])([2H])Oc1ccc2ncc(C#Cc3cncc(C(=O)Nc4ccc(CN5CCN(C)CC5)c(C(F)(F)F)c4)c3)n2n1", "yes (1)"],
  ["CN1C(=O)N(C)C2SC(N/N=C/C=C/c3ccccc3)=NC21 (centres undefined)", "no (0)"],
  ["CC(=O)c1ccc(Nc2nc(SC(C)C)nc(-c3ccccc3)c2C#N)cc1", "no (0)"],
  ["CCOC(=O)C1=C(N)N(c2ccccc2)C2=C(C(=O)CC(C)(C)C2)C1c1ccccc1OC (centres undefined)", "no (0)"],
  ["O=C1Nc2cc(-c3ccc(NC(=O)c4cccc([N+](=O)[O-])c4)cc3)ccc2/C1=C/c1ccc[nH]1", "no (0)"],
  ["O=C(O)CCCCCCCCCCN1C(=O)/C(=C/c2cnc(-c3ccc(Cl)cc3)s2)SC1=S", "no (0)"],
  ["O=C(c1ccc(O)cc1)C1[C@H](c2ccc(Br)cc2)[C@@H](c2ccccc2)NC12C(=O)Nc1ccc(Br)cc12 (some centres undefined)", "no (0)"],
  ["N#Cc1c(Cl)nc(SCc2ccc(F)cc2)nc1-c1ccc(F)cc1", "no (0)"],
  ["CCOC(=O)c1sc(N/N=C(\\C)c2ccc3c(c2)Nc2ccccc2S3)nc1C", "no (0)"],
  ["COc1ccc(/C=C/C(=O)c2ccc(NC(=O)CN3C(=O)NC(C)(c4ccccc4)C3=O)cc2)cc1 (centres undefined)", "no (0)"],
  ["COc1cc2c3c(n(CCCNCCO)c(=O)c2cc1OC)-c1nc2c(cc1C3=O)OCO2", "yes (1)"]
]}

###

Recorded measurements of growth, one per entry
Tested on: SR leukemia
Assay: NCI-60 one-dose screen, 48 h (100 = growth as untreated, 0 = no growth, -100 = all killed)
Details: 10 µM
About 83,000 compounds went through this panel and 20% of them were active in at least one assay; those are over-represented in the sample as a whole.
Measure: growth (%)

{"columns": ["Compound", "Tested System", "Endpoint Unit", "Numeric Value"],
 "data": [
  ["N#Cc1ccc(-c2nn(-c3ccc(C(=O)O)cc3)cc2CNc2cccc(Br)c2)cc1", "SR leukemia", "%", 40.2],
  ["O=C(CNc1nc(-c2ccccc2)cs1)Nc1ccccc1", "SR leukemia", "%", 4.25],
  ["O=C(CSc1nnc(-c2c[nH]c3ccccc23)n1-c1ccccc1)c1ccccc1", "SR leukemia", "%", 81.6],
  ["O=c1c2ccccc2nc(COc2ccccc2)n1/N=C/c1ccc(N2CCOCC2)cc1", "SR leukemia", "%", 95.1],
  ["Nc1nc(Nc2ccccc2)nn1Cc1c(Cl)cccc1Cl", "SR leukemia", "%", 25],
  ["COc1ccc(NC(=O)Cn2c(/C=C/c3ccc(N(C)C)cc3)nc3ccccc3c2=O)cc1", "SR leukemia", "%", 72.5],
  ["O=c1[nH]c2ccccc2cc1CSc1ccc(Nc2nccc(-c3ccc(Cl)cc3)n2)cc1", "SR leukemia", "%", 59.2],
  ["COc1ccc(CN2[C@@H](C(=O)NCc3ccc(C(=O)NO)cc3)Cc3c([nH]c4ccccc34)[C@@H]2C2CC2)cc1", "SR leukemia", "%", 15.2],
  ["O=C(Nc1cccc(C(F)(F)F)c1)c1cncc(C#Cc2cnc3ccc(N4CCOCC4)nn23)c1", "SR leukemia", "%", -1.17],
  ["CCCCSc1nc(Nc2ccc(/C(C)=N/NC(N)=S)cc2)c(C#N)c(-c2ccc(F)cc2)n1", "SR leukemia", "%", 52.4],
  ["O=C(NO)c1ccc(-c2nc3ccc4[nH]ncc4c3c3c2CCCC3)cc1", "SR leukemia", "%", -13.8],
  ["COc1cccc2nc(Nc3cccc(NC(=O)c4ccc(CN5CCCN(C)CC5)c(C(F)(F)F)c4)c3)ccc12", "SR leukemia", "%", -27.1],
  ["N#Cc1c(NC(=O)c2ccc(C(O)(C(F)(F)F)C(F)(F)F)cc2)sc2c1CCC(=O)C2", "SR leukemia", "%", -6.36],
  ["COc1ccc(-c2cc(-c3cc(C(=O)c4ccc(Br)cc4)n4ccc(C)cc34)nc(N)c2C#N)cc1", "SR leukemia", "%", 79.1],
  ["O=c1[nH]c2ccccc2cc1CSc1ccc(Nc2nccc(-c3ccc(C(F)(F)F)cc3)n2)cc1", "SR leukemia", "%", 64.7],
  ["CC(=O)c1ccc(Nc2nc(SC(C)C)nc(-c3ccccc3)c2C#N)cc1", "SR leukemia", "%", 70],
  ["O=C(CSc1nnc(-c2c[nH]c3ccccc23)n1-c1ccccc1)Nc1ccc(C(=O)/C=C/c2ccc(Br)cc2)cc1", "SR leukemia", "%", 72.3],
  ["N#Cc1ccc(-c2nn(-c3ccc(C(=O)O)cc3)cc2CNc2cc(Cl)cc(C(F)(F)F)c2)cc1", "SR leukemia", "%", 1.72],
  ["Oc1ccc(/C=C2\\CCCc3cc4ccc(O)cc4[o+]c32)c(O)c1", "SR leukemia", "%", 15.3],
  ["O=C(NO)c1ccc(CNC(=O)[C@H]2Cc3c([nH]c4ccccc34)[C@H](c3ccc(Cl)cc3)N2)cc1", "SR leukemia", "%", 17.2],
  ["CC(=O)Oc1ccccc1C(=O)Oc1ccc(C(=O)/C=C/c2ccncc2)cc1", "SR leukemia", "%", 7.37],
  ["C=C1CCC2C3(C)COC(c4cccc(F)c4)OC3CCC2(C)C1CC(O)C1=CCOC1=O (configuration not stated)", "SR leukemia", "%", 40.4],
  ["COc1ccc(C(=O)/C=C/c2cc(F)cc(C(F)(F)F)c2)cc1S(N)(=O)=O", "SR leukemia", "%", 3.04],
  ["COc1cc(/C=C/C(=O)c2ccc(S(=O)(=O)NCCNc3nc(Nc4ccc(F)cc4)nc(N(C)C)n3)cc2)cc(OC)c1OC", "SR leukemia", "%", 3.14],
  ["Cc1ccc2nc(-c3ccc(-c4nnc(SCC(=O)Nc5ccc(Br)cc5)o4)cc3)[nH]c2c1", "SR leukemia", "%", 16.1],
  ["CN(C)c1ccc(/C=C/c2nc3ccccc3c(=O)n2CC(=O)Nc2ccccc2)cc1", "SR leukemia", "%", 75.5],
  ["COc1ccc(NC(=O)CSc2nnc(-c3ccc4nc(-c5ccc(Cl)cc5)[nH]c4c3)o2)cc1", "SR leukemia", "%", 43.5],
  ["COc1ccc2cc([C@H](C)C(=O)NCc3ccccc3)ccc2c1", "SR leukemia", "%", 29.8],
  ["Cc1ccn2c(C(=O)c3ccccc3)cc(-c3cc(-c4ccc(N(C)C)cc4)c(C#N)c(N)n3)c2c1", "SR leukemia", "%", 75.9],
  ["N#Cc1c(NC(=O)c2cccc(C(F)(F)F)c2)sc2c1CCC(O)=C2", "SR leukemia", "%", 14.6],
  ["Cc1cc(C)nc(NS(=O)(=O)c2ccc(N/C(N)=N/c3nccc(-c4cccs4)n3)cc2)n1", "SR leukemia", "%", 92.3],
  ["CCOC(=O)C1=C(N)N(c2ccccc2)C2=C(C(=O)CC(C)(C)C2)C1c1ccccc1OC (configuration not stated)", "SR leukemia", "%", 95],
  ["CC(=O)c1cc(C(=O)c2ccc3c(c2)NC(=O)CO3)n2ccc3ccccc3c12", "SR leukemia", "%", 63.2],
  ["O=C(NO)c1ccc(Cn2ccc3c(Nc4ccccc4)ncnc32)cc1", "SR leukemia", "%", 11.9],
  ["O=C1CCC(N2Cc3cc(CC(=O)Nc4ccc(N5CCCCC5)cc4)ccc3C2=O)C(=O)N1 (configuration not stated)", "SR leukemia", "%", 77.2],
  ["COc1cccc(-c2ccnc(/N=C(\\N)Nc3ccc(S(=O)(=O)Nc4nc(C)cc(C)n4)cc3)n2)c1", "SR leukemia", "%", 100],
  ["N#Cc1c(-c2ccc(Cl)cc2)cc(-c2ccccc2)nc1OCc1ccccc1", "SR leukemia", "%", 42.2]
]}
